Test system: Colo205
assay_details: Proliferation inhibition test, Wnt mutant cell line Colo205
Format: cell-based
measurement_conditions: Homo sapiens, COLO 205, 96 h, Colo205, 96 h culture with compound; read-out: Antiproliferation IC50 Colo205
result_type: IC50 (nM)

Reference set (2 entries):
structure_smiles_string | endpoint_unit | result_number
[2H]C([2H])([2H])N1c2nc(NCc3ccc(Oc4cnc(C(F)(F)F)nc4CC)nc3)nc3c2N(CCC3)C(=O)[C@@H]1CO | nM | 24.2
Cc1nc(C(F)(F)F)ncc1Oc1ccc(CNc2nc3c4c(n2)N(C)[C@@](C)(CO)C(=O)N4CCC3)cn1 | nM | 26.6

[a] [2H]C([2H])([2H])N1c2nc(NCc3ccc(Oc4ccc(C(F)(F)F)nc4Br)nc3)nc3c2N(CCC3)C(=O)[C@]1(C)CO
[b] CN1c2nc(NCc3ccc(Oc4ccc(C(F)(F)F)nc4CC#N)nc3)nc3c2N(CCC3)C(=O)[C@@H]1CO
[c] CCc1nc(C(F)(F)F)ncc1Oc1ccc(CNc2nc3c4c(n2)N(C)[C@@](C)([C@H](C)O)C(=O)N4CCC3)cn1
Q: # sort list by recorded IC50, greatest to least List labels; respect the requested ordering.
Ans: b, c, a
(b: 179 nM, c: 70.3 nM, a: 6.52 nM)

----------
Tested on: Colo205-LUC-TCF/LEF reporter gene
assay_details: Colo205-LUC-TCF/LEF M1 reporter cell line luciferase inhibition
Assay type: cell-based
measurement_conditions: 4 h, 4 hours incubation, firefly luciferase signal
pIC50: −log10 of the molar value.
result_type: pIC50

compound | pIC50
CN1c2nc(NCc3ccc(Oc4ccc(C(F)(F)F)nc4Cl)nc3)nc3c2N(CCC3)C(=O)[C@@H]1CO [Compound 2] | 7.65

[a] Cc1nc(C(F)(F)F)ncc1Oc1ccc(CNc2nc3c4c(n2)N(C)[C@@](C)(CO)C(=O)N4CCC3)cn1 [Compound 19]
[b] [2H]C([2H])([2H])N1c2nc(NCc3ccc(Oc4ccc(C(F)(F)F)nc4Cl)nc3)nc3c2N(CCC3)C(=O)[C@@H]1CO [Compound 1]
[c] [2H]C([2H])([2H])N1c2nc(NCc3ccc(Oc4ccc(C(F)(F)F)nc4Br)nc3)nc3c2N(CCC3)C(=O)[C@]1(C)CO [Compound 12]
Q: Falling order of pIC50, please. Ranked list of labels, please, in the requested order.
Ans: c, b, a
(c: 8.04, b: 7.81, a: 7.46)

----------
Test system: Colo205
assay_details: Proliferation inhibition test, Wnt mutant cell line Colo205
Type: cell-based
measurement_conditions: Homo sapiens, COLO 205, 96 h, Colo205, 96 h culture with compound; read-out: Antiproliferation IC50 Colo205
pIC50: −log10 of the molar value.
result_type: pIC50

structure_smiles_string | result
CN(c1nc(C(F)(F)F)ccc1Oc1ccc(CNc2nc3c4c(n2)N(C)[C@@](C)(CO)C(=O)N4CCC3)cn1)C1CC1 | > 10.00
CNc1nc(C(F)(F)F)ccc1Oc1ccc(CNc2nc3c4c(n2)N(C)[C@@](C)(CO)C(=O)N4CCC3)cn1 | > 10.00

Now, please, on to the next compound.
Q: # get_value(readout='pIC50', item= "CN1c2nc(NCc3ccc(Oc4ccc(C(F)(F)F)nc4N4CC(F)(F)C4)nc3)nc3c2N(CCC3)C(=O)[C@]1(C)CO" )
Ans: > 10.00
